pKi: recorded values
molecular target: human recombinant GST-PAK1-KD protein (Homo sapiens); construct: residues #249-545 of human PAK1, UniProtKP/Swiss Q13153; His6 (N); made in house; host or cells: Sf9 insect cells, pAcGP67 baculovirus expression vector; assay: GST-PAK1-KD (kinase domain) biochemical assay, microfluidic mobility shift; conditions: Table I, PAK1 Ki class; read-out: Ki
pKi: −log10 of the molar value.

{"columns": ["COMPOUND", "pKi"],
 "data": [
  ["C[C@@H](c1ccc2[nH]cnc2c1)N(C)c1nccc(Nc2cc(C3CC3)[nH]n2)n1 [I-9]", "> 7.30"]
]}

// fetch pKi given entry FC1(F)CC(c2cc(Nc3ccnc(NCc4ccc5[nH]cnc5c4Cl)n3)n[nH]2)C1 [I-105]
> 7.30

// fetch pKi given entry c1cc(CNc2nccc(Nc3cc(C4CCC4)[nH]n3)n2)c2cc[nH]c2c1 [I-36]
> 7.30

// fetch pKi given entry C[C@H](Nc1nccc(Nc2cc([C@@H]3C[C@@H]3F)[nH]n2)n1)c1ccc2[nH]ccc2c1 [I-64]
6.60 to 7.30

// fetch pKi given entry Cc1c(CNc2nccc(Nc3cc(C4CC4)[nH]n3)n2)ccc2[nH]cnc12 [I-16]
6.60 to 7.30

// fetch pKi given entry FC1(F)CC(c2cc(Nc3ccnc(NCc4cccc5[nH]ccc45)n3)n[nH]2)C1 [I-104]
6.60 to 7.30

====

target: human recombinant GST-PAK1-KD protein (Homo sapiens, UniProt Q13153); construct: residues #249-545 of human PAK1, UniProtKP/Swiss Q13153; His6 (N); made in house; host or cells: Sf9 insect cells, pAcGP67 baculovirus expression vector; assay: GST-PAK1-KD (kinase domain) biochemical assay, microfluidic mobility shift; details: Table I, PAK1 Ki class; read-out: Ki
Sequence (Q13153 249-545): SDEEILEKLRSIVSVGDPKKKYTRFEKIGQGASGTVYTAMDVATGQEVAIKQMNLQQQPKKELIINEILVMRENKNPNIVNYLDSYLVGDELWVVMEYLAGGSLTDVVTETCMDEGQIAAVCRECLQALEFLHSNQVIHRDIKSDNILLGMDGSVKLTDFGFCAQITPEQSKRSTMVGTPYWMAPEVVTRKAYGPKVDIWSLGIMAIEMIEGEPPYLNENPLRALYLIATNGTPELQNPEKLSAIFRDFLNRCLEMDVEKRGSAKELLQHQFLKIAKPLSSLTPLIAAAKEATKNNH
PARAMETER_MEASURED: Ki

Guide cases for Ki, answers given:
{"columns": ["COMPOUND", "PARAMETER_MEASURED", "REPORTED_RESULT"],
 "data": [
  ["Fc1cc(CNc2ncc(F)c(Nc3cc(C4CC4)[nH]n3)n2)c2cc[nH]c2c1 [I-91, diformate]", "Ki", "250 to 1000 nM"],
  ["c1ccc([C@@H]2C[C@H]2c2cc(Nc3ccnc(NCc4ccc5[nH]cnc5c4)n3)n[nH]2)cc1 (racemic) [I-27]", "Ki", "50 to 250 nM"]
]}

For the next question, use this compound.
// fetch Ki given entry C[C@H](Nc1nccc(Nc2cc(C3CCC3)[nH]n2)n1)c1ccc2[nH]cnc2c1 [I-1]
< 50 nM

====

Biological target: human recombinant GST-PAK1-KD protein (Homo sapiens, UniProt Q13153)
Construct: residues #249-545 of human PAK1, UniProtKP/Swiss Q13153; His6 (N); made in house; host or cells: Sf9 insect cells, pAcGP67 baculovirus expression vector
Assay: GST-PAK1-KD (kinase domain) biochemical assay, microfluidic mobility shift
Conditions: Table II, PAK1 Ki class; read-out: Ki
Protocol: Activity of human recombinant GST-PAK1-KD protein was assessed in vitro assay by observing the phosphorylation of a fluorogenic peptide substrate. The peptide substrate is a consensus sequence based on various PAK1 substrates reported in the scientific literature. […] Incubations were carried out at 22° C. in MatriCal MP101 384-well Metriplates™. […]
PARAMETER_MEASURED: Ki

{"columns": ["COMPOUND", "Ki"],
 "data": [
  ["Fc1cc(CNc2nccc(Nc3cc(C4CC4)[nH]n3)n2)c2cn[nH]c2c1 [II-52]", "< 50 nM"],
  ["CCN(Cc1ccc2[nH]cnc2c1)c1ncc(F)c(Nc2cc(C3CC3)[nH]n2)n1 [II-104]", "50 to 250 nM"],
  ["FC(F)(F)c1cc(CNc2nccc(Nc3cc(C4CC4)[nH]n3)n2)c2cn[nH]c2c1 [II-99]", "< 50 nM"],
  ["CN(Cc1ccc2[nH]cnc2c1Cl)c1ncc(F)c(Nc2cc(C3COC3)[nH]n2)n1 [II-5]", "< 50 nM"],
  ["C[C@H](c1cc(Nc2ccnc(NCc3ccc4[nH]cnc4c3Cl)n2)n[nH]1)C1CC1 [II-79]", "< 50 nM"],
  ["CCc1c(CNc2nccc(Nc3cc(C4CC4)[nH]n3)n2)ccc2[nH]cnc12 [II-7]", "< 50 nM"],
  ["Cc1cc(Nc2ccnc(NCc3ccc4[nH]cnc4c3Cl)n2)n[nH]1 [II-46]", "50 to 250 nM"],
  ["C[C@H](CN(Cc1cc(F)cc2[nH]ncc12)c1nccc(Nc2cc(C3CC3)[nH]n2)n1)N(C)C [II-62]", "< 50 nM"],
  ["Clc1cc(CNc2nccc(Nc3cc(C4CC4)[nH]n3)n2)c2nc[nH]c2c1 [II-44]", "< 50 nM"],
  ["Cc1cc(CNc2nccc(Nc3cc(C4CC4)[nH]n3)n2)c2nc[nH]c2c1 [II-28]", "50 to 250 nM"]
]}

// output Ki; input CCOc1cc(Nc2ccnc(N(C)Cc3ccc4[nH]cnc4c3Cl)n2)n[nH]1 [II-33] ; system human recombinant GST-PAK1-KD protein (Homo sapiens, UniProt Q13153)
50 to 250 nM
